tested on: SR leukemia; test: NCI tumour cell line growth inhibition, 48 h
assay-endpoint: TGI

Take each entry in turn and give its TGI.
1. Cc1c2c(cc3c1C(=O)C(=O)C([C@@H](C)CO)=C3O)C(C)(C)CCC2
2. COc1ccc(OC)c(/C=C/C(=O)N/N=C/c2ccc(Cl)cc2)c1
3. Nc1cc(Cl)cc2cc(Cl)cnc12
4. CC1=C2C(=O)O[C@@H](c3ccoc3)[C@]2(C)CCC1
5. O=C1CSC(c2ccccc2)N1c1nc2cc3sc(N4C(=O)CSC4c4ccccc4)nc3cc2s1 (configuration not stated)

1: 56.7 µM; 2: 16.4 µM; 3: > 100 µM; 4: > 100 µM; 5: > 100 µM
